molecular target: Beta-3 adrenergic receptor (Homo sapiens, UniProt P13945); assay: Effective concentration to stimulate cAMP production in chinese hamster ovary cells expressing cloned human beta-3-adrenergic receptor
Sequence (P13945 whole entry): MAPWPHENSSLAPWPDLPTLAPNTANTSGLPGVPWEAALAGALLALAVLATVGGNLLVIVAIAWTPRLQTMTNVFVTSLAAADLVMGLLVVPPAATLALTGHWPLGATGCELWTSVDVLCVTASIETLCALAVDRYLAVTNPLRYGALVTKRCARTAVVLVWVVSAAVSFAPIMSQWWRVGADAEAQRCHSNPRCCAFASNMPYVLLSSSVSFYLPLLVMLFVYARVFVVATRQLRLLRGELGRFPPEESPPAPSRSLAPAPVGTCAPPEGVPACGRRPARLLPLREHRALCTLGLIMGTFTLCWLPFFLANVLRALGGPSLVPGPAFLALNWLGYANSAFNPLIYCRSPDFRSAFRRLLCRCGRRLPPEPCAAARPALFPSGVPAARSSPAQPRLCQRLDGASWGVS
Recorded metric: pEC50
Please note pEC50 is a logarithmic value: minus log10 of concentration in mol/L. Answer with that number alone.

[
  {
    "Input smiles": "O=S(=O)(Nc1ccc(CCNC[C@H](O)c2ccccc2)cc1)c1ccc(Cc2nc(-c3ccc4ncccc4c3)cs2)cc1",
    "Recorded value": 8.57
  },
  {
    "Input smiles": "O=S(=O)(Nc1ccc(CCNC[C@H](O)c2ccccc2)cc1)c1ccc(Cc2nc(CCC3CCCC3)cs2)cc1",
    "Recorded value": 7.59
  },
  {
    "Input smiles": "O=S(=O)(Nc1ccc(CCNC[C@H](O)c2ccccc2)cc1)c1ccc(Cc2nc(-c3c[nH]c4ccccc34)cs2)cc1",
    "Recorded value": 8.04
  }
]

Moving on to another compound below.
Prompt line: Return reported pEC50 for target or system Beta-3 adrenergic receptor (Homo sapiens, UniProt P13945), item O=S(=O)(Nc1ccc(CCNC[C@H](O)c2ccccc2)cc1)c1ccc(Cc2nc(-c3ccc(O)cc3)cs2)cc1 .
Response line: 7.35

====

target: UniProt P13945; test: Effective concentration to stimulate cAMP production in chinese hamster ovary cells expressing cloned human beta-3-adrenergic receptor
As shown below, each of these compounds has a reported EC50 value.
Write your answer as a measured quantity: the number, then the unit.

[
  {
    "Input smiles": "O=S(=O)(Nc1ccc(CCNC[C@H](O)c2ccccc2)cc1)c1ccc(Cc2nc(CCc3ccccc3)cs2)cc1",
    "EC50": "33 nM"
  },
  {
    "Input smiles": "O=S(=O)(Nc1ccc(CCNC[C@H](O)c2ccccc2)cc1)c1ccc(Cc2nc(-c3ccc(F)c(F)c3)cs2)cc1",
    "EC50": "7.1 nM"
  },
  {
    "Input smiles": "CCCCCCc1ccc(-c2csc(Cc3ccc(S(=O)(=O)Nc4ccc(CCNC[C@H](O)c5ccccc5)cc4)cc3)n2)cc1",
    "EC50": "1.2 nM"
  }
]

Prompt line: Please list EC50 recorded for the compound O=S(=O)(Nc1ccc(CCNC[C@H](O)c2ccccc2)cc1)c1ccc(Cc2nc(-c3cnc4ccccc4c3)cs2)cc1
Response line: 7.3 nM

====

biological target: UniProt:P13945; test: Effective concentration to stimulate cAMP production in chinese hamster ovary cells expressing cloned human beta-3-adrenergic receptor
Recorded metric: EC50 (nM)
Unit nM implied. Number only.

[
  {
    "Input smiles": "CC(=O)NCCCCCc1csc(Cc2ccc(S(=O)(=O)Nc3ccc(CCNC[C@H](O)c4ccccc4)cc3)cc2)n1",
    "Measurement unit": "nM",
    "EC50": 50
  },
  {
    "Input smiles": "O=S(=O)(Nc1ccc(CCNC[C@H](O)c2ccccc2)cc1)c1ccc(Cc2nc(-c3ccccn3)cs2)cc1",
    "Measurement unit": "nM",
    "EC50": 22
  },
  {
    "Input smiles": "O=S(=O)(Nc1ccc(CCNC[C@H](O)c2ccccc2)cc1)c1ccc(Cc2nc(-c3cc4ccccc4s3)cs2)cc1",
    "Measurement unit": "nM",
    "EC50": 5.8
  },
  {
    "Input smiles": "O=S(=O)(Nc1ccc(CCNC[C@H](O)c2ccccc2)cc1)c1ccc(Cc2nc(-c3ccc(F)cc3)cs2)cc1",
    "Measurement unit": "nM",
    "EC50": 9.5
  },
  {
    "Input smiles": "O=S(=O)(Nc1ccc(CCNC[C@H](O)c2ccccc2)cc1)c1ccc(Cc2nc(-c3cc4ccccc4o3)cs2)cc1",
    "Measurement unit": "nM",
    "EC50": 5
  },
  {
    "Input smiles": "O=S(=O)(Nc1ccc(CCNC[C@H](O)c2ccccc2)cc1)c1ccc(Cc2nc(-c3cccnc3)cs2)cc1",
    "Measurement unit": "nM",
    "EC50": 40
  },
  {
    "Input smiles": "CCCCCCCCc1csc(Cc2ccc(S(=O)(=O)Nc3ccc(CCNC[C@H](O)c4ccccc4)cc3)cc2)n1",
    "Measurement unit": "nM",
    "EC50": 10
  }
]

Moving on to another compound below.
Prompt line: Please list EC50 recorded for the compound CC(C)(C)c1ccc(-c2csc(Cc3ccc(S(=O)(=O)Nc4ccc(CCNC[C@H](O)c5ccccc5)cc4)cc3)n2)cc1
Response line: 2.4

Just for reference, ChEMBL document CHEMBL1139636 is where these values come from.
